- Test system: IGROV1 ovarian
- procedure text: NCI-60 one-dose screen, 48 h (100 = growth as untreated, 0 = no growth, -100 = all killed)
- condition details: 10 µM unless noted
- Description: Growth inhibition of the IGROV1 human tumor cell line is measured as a screen for anti-cancer activity. Cells are grown in 96 well plates and exposed to the test compound for 48 hours. Compounds are tested at a single concentration, which is 10^-5 M for most compounds. The reported endpoint is percent growth (GI% or GIPRCNT), where numbers from 0 - 100% represent growth inhibition, and numbers from -100% - 0 represent cell death. For example, a value of 40 represents 60% growth inhibition. […]
About 83,000 compounds went through this panel and 20% of them were active in at least one assay; those are over-represented in the sample as a whole.
Friendly reminder: growth below 90% is True, at or above is False.

compound	group
Clc1ccc2nc(Cl)c3ccccc3c2c1	True
Cc1cc(C(=O)O)c(C)cc1C(=O)O	True
COc1ccc(C2CC(c3cccc(Nc4ccnc5cc(Cl)ccc45)c3)=NN2C=O)cc1 (stereo not given)	True
C/C(=N\N1CC(=O)NC1=O)c1ccc([N+](=O)[O-])o1	False
CC(=O)Oc1ccc(C2OC(c3ccc4ccccc4c3OC(C)=O)=NN2C(C)=O)c(OC(C)=O)c1 (stereo not given)	True
OCCOc1c(Cl)cc(Cl)cc1Cl	False
COc1cccc(CCC2C(=O)CCCC2=O)c1	False
CC(C)[C@]12O[C@H]1[C@@H]1O[C@]13[C@]1(O[C@H]1C[C@H]1C4=C(CC[C@@]13C)C(=O)OC4)[C@@H]2OC(=O)CN(C)C	True
Cn1cc(-c2csc(-c3cn(C)c4ncccc34)n2)c2cc(Br)cnc21	False
COc1cc(/C=C2\COc3ccc(O)cc3C2=O)cc(OC)c1	True

# input for lookup
Dear colleague, could you confirm whether growth of CCCCc1nc(Cl)c(CO)n1Cc1ccc(-c2ccccc2-c2nn[nH]n2)cc1 falls below 90%? Thanks.
False

This collection of values is drawn from PubChem BioAssay (NCI).
